This listing pairs molecules with measured IC50.
target_entity: Tyrosinase (Agaricus bisporus, UniProt O42713)
Sequence (O42713 whole entry): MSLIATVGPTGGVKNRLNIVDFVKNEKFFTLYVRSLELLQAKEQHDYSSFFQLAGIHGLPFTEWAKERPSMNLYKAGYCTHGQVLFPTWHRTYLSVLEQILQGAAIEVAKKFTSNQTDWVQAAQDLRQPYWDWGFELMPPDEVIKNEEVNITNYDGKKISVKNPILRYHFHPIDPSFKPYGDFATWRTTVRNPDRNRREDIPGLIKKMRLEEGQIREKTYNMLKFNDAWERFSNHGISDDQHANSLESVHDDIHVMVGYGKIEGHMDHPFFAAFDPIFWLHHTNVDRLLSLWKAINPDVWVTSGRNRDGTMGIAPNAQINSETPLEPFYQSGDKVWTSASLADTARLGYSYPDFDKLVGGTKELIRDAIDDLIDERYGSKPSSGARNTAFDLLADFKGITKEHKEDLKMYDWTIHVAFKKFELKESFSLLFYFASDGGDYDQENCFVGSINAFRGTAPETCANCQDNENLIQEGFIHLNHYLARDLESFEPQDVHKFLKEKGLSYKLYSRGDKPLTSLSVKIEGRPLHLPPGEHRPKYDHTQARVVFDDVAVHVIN
Express it in µM; write the number only.

> print(dat)
                  item.smiles                             target.entity  metric.name  result.value
1   Oc1ccc(CCc2ccc(O)cc2O)cc1  Tyrosinase (Agaricus bisporus, UniProt O42713)         IC50          8.44
2  Oc1ccc(CCc2ccccc2Cl)c(O)c1  Tyrosinase (Agaricus bisporus, UniProt O42713)         IC50          33.8

Would you kindly look at the next entry?
Provide Tyrosinase (Agaricus bisporus, UniProt O42713) IC50 reading for `Oc1ccc(CCc2ccc(F)cc2)c(O)c1` .
49.6
